Listed binders paired with reported R0
Target: T1, rat MuSK (rat, UniProt Q62838 22-494, limits assumed)
T1 construct: Coated on Biacore chip (200RU) or ELISA plate
T1 sequence (looked up): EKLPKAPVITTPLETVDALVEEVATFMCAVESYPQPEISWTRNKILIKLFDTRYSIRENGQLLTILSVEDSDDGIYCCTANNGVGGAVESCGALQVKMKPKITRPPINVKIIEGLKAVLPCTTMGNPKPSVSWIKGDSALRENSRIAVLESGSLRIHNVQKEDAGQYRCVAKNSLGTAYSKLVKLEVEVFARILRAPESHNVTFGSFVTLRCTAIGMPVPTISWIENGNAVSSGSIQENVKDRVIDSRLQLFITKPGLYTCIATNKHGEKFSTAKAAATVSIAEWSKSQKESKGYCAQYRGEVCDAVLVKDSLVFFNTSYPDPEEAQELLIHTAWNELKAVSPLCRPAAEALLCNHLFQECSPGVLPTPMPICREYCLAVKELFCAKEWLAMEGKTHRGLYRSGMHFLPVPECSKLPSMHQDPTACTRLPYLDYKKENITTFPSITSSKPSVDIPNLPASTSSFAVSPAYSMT
Test: Biacore, MuSK on chip, association pH 7.4, dissociation pH 5.5
Report as a plain number; the unit RU is understood.

INSERT INTO measurements (binder, endpoint_name, quantity_unit, number) VALUES
  ('3B2g1m4 (antibody, human IgG1, V domains shown, human IgG1-LALA backbone; produced in HEK293 cells) VH: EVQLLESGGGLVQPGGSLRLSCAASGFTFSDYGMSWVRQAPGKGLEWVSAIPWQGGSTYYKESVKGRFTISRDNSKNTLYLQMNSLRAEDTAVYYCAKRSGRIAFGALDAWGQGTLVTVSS VL: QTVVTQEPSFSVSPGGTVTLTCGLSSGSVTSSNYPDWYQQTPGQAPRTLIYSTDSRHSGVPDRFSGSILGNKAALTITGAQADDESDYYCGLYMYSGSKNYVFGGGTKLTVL', 'R0', 'RU', 171);

We now examine a further binder.
For the binder 3B2 (antibody, V domains shown, human IgG1 with the LALA mutations (L234A, L235A); produced in HEK293 cells; also called 3B2 mAb; parental 3B2 Ab) VH: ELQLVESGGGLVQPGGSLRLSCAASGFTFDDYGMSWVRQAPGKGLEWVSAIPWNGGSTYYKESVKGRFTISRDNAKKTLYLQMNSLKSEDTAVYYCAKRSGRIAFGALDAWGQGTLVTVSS VL: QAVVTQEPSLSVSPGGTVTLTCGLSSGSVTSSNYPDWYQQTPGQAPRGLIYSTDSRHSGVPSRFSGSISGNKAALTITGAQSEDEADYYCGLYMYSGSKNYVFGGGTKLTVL , give its measured R0 value. 174
